test target: human GR (Homo sapiens)
Sequence (P04150 whole entry): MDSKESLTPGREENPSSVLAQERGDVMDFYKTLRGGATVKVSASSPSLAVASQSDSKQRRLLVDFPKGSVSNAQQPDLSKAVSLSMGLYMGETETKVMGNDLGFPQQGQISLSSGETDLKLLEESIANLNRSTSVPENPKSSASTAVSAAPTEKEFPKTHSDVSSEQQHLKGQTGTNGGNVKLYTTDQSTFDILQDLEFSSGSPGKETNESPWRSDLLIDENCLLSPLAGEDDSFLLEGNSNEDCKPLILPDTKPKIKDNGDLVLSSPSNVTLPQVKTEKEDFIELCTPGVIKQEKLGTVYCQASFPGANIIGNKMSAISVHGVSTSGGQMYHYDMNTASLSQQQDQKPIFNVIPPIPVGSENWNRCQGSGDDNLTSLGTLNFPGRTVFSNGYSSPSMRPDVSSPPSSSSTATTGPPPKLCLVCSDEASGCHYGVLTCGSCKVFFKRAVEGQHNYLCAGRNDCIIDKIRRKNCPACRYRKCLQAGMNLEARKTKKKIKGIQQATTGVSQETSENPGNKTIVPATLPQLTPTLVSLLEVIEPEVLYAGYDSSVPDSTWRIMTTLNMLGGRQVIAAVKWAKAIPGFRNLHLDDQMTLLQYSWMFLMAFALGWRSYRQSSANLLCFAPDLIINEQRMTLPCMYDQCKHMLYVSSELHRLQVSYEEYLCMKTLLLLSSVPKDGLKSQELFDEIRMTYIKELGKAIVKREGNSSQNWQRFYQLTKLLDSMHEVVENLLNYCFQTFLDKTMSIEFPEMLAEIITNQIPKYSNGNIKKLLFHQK
assay explanation: Transrepression Assay (GITAR), TNFα-β-lactamase reporter gene in U937 cells
Type: cell-based
Design: U937 cells contain an endogenous glucocorticoid receptor (GR); endogenous in cells; host or cells: U937 cells stably transfected with the TNF-α promoter/β-lactamase reporter only
condition label: U-937; 100 nM dexamethasone = 100% activity; read-out: maximal activity in the transrepression assay
reported metric: Emax

> print(dat)
                                    compound   measured
 1  C[C@]12Cc3cnn(-c4ccc(F)c(F)c4)c3C=C1CC[C@@]2(O)CCc1cc(Cl)ccc1C(N)=O [Example 177]  5 to 100%
 2  C[C@]12Cc3cnn(-c4ccc(F)c(F)c4)c3C=C1CC[C@@]2(O)CCc1ccccc1S(N)(=O)=O [Example 142]  5 to 100%
 3  COC(=O)Nc1c(F)cccc1CC[C@]1(O)CCC2=Cc3c(cnn3-c3ccc(F)cc3)C[C@@]21C [Example 123]  5 to 100%
 4  COc1cccc(CC[C@]2(O)CCC3=Cc4c(cnn4-c4ccc(F)cc4)C[C@@]32C)c1C(N)=O [Example 189]  5 to 100%
 5  C=C(C)CNC(=O)c1ccccc1CC[C@]1(O)CCC2=Cc3c(cnn3-c3ccc(F)cc3)C[C@@]21C [Example 32]  5 to 100%
 6  CCNC(=O)c1ccccc1CC[C@]1(O)CCC2=Cc3c(cnn3-c3ccc(F)cc3)C[C@@]21C [Example 2]  5 to 100%
 7  C[C@]12Cc3cnn(-c4ccc(F)cc4)c3C=C1CC[C@@]2(O)CCc1cc(F)c(F)cc1C(N)=O [Example 178]  5 to 100%
 8  C[C@]12Cc3cnn(-c4ccc(F)cc4)c3C=C1CC[C@@]2(O)CCc1cccc(F)c1NC(=O)C(F)(F)F [Example 126]  5 to 100%
 9  C=C(C)CNC(=O)c1c(F)cccc1CC[C@]1(O)CCC2=Cc3c(cnn3-c3ccc(F)cc3)C[C@@]21C [Example 44]  5 to 100%
10  CCNC(=O)C(C)(C)NC(=O)c1ccccc1CC[C@]1(O)CCC2=Cc3c(cnn3-c3ccc(F)cc3)C[C@@]21C [Example 71]  5 to 100%
11  C[C@]12Cc3cnn(-c4ccc(F)cc4)c3C=C1CC[C@@]2(O)CCc1cc(F)ccc1C#N [Example 146]  5 to 100%
12  CC(C)NC(=O)Nc1ccccc1CC[C@]1(O)CCC2=Cc3c(cnn3-c3ccc(F)cc3)C[C@@]21C [Example 129]  5 to 100%
13  C[C@@H](NS(=O)(=O)CC(F)(F)F)c1c(F)cccc1CC[C@]1(O)CCC2=Cc3c(cnn3-c3ccc(F)cc3)C[C@@]21C [Example 96]  5 to 100%
14  C[C@]12Cc3cnn(-c4ccc(F)cc4)c3C=C1CC[C@@]2(O)CCc1cccc(F)c1CNS(C)(=O)=O [Example 98]  5 to 100%
15  C[C@]12Cc3cnn(-c4ccc(F)cc4)c3C=C1CC[C@@]2(O)CCc1ccc(F)cc1C#N [Example 163]  5 to 100%

* * *

test target: human GR (Homo sapiens)
assay explanation: Trans-Activation Modulation of Glucocorticoid Receptor (GRAMMER), MMTV-LUC reporter gene
Type: cell-based
Parameters: endogenous in cells
condition label: Table 2; A549 cells; IP = inflection point; read-out: Transactiviation A549 Cells GRAMMER IP
pEC50: −log10 of the molar value.
reported metric: pEC50

> print(dat)
                                   compound  reported.metric  measured
1  C[C@]12Cc3cnn(-c4ccc(F)cc4)c3C=C1CCC[C@@]2(O)CCc1ccccc1Cl [Example 41 WO 2004/075840 A2, reference compound]            pEC50      6.91
2  COc1ccccc1CC[C@]1(O)CCC2=Cc3c(cnn3-c3ccc(F)cc3)C[C@@]21C [Example 58 WO 2004/075840 A2, reference compound]            pEC50      6.40
3  C[C@]12Cc3cnn(-c4ccc(F)cc4)c3C=C1CCC[C@@H]2[C@@H](O)Cc1ccccc1 [Example 22 WO 03/086294 A2, reference compound]            pEC50      6.96
